Source: PubChem BioAssay (NCI)

Tested on: UACC-62 melanoma
Test: NCI-60 one-dose screen, 48 h (100 = growth as untreated, 0 = no growth, -100 = all killed)
Conditions: 10 µM unless noted
The panel holds about 83,000 compounds, 20% with a hit somewhere; the sample as a whole holds those more often.
The entries below are paired with their reported growth.
State just the number; it will be interpreted in %.

Consider the following illustrative entries.
- molecule: "Cc1ccc(-c2cc3nc(C(Cl)Cl)nc(-c4ccc(S(=O)(=O)N(C)C)cc4)n3n2)cc1"
  units: "%"
  observedValue: 88.9
- molecule: "CC1(C)CC[C@]23CC[C@]4(C)[C@H](CC[C@@H]5[C@@]6(C)CC[C@H](N)C(C)(C)[C@@H]6CC[C@]54C)[C@H]2[C@H]1OC3"
  units: "%"
  observedValue: 94.6
- molecule: "CCOC(=O)c1cccc(NC2=C(Cl)C(=O)c3nc(C)ccc3C2=O)c1"
  units: "%"
  observedValue: 95.8
- molecule: "CC(=O)N1N=C(c2cc3ccccc3oc2=O)CC1c1cn(-c2ccccc2)nc1-c1ccc(C)cc1 (configuration not stated)"
  units: "%"
  observedValue: 95.2
- molecule: "CC(=O)N(O)CCCCCNC(=O)CCC(=O)N(O)CCCCCNC(=O)CCC(=O)N(O)CCCCCN(CCCCCCCCCC[P+](c1ccccc1)(c1ccccc1)c1ccccc1)CCCCCCCCCC[P+](c1ccccc1)(c1ccccc1)c1ccccc1"
  units: "%"
  observedValue: -10.6
- molecule: "NC(=O)c1c(NC(=O)c2ccc(C(F)(F)F)cc2)sc2c1CCC(=O)C2"
  units: "%"
  observedValue: -24.9

Query: Could you share what growth was measured for CN1CCN(Cc2ccc(NC(=O)c3cncc(C#Cc4cnc5ccc(OC6CCOCC6)nn45)c3)cc2C(F)(F)F)CC1 , tested on UACC-62 melanoma?
Response: -70.5

Query: Now give it for Brc1cccc(-c2cc(-c3cnc4c(c3)OCCO4)n[nH]2)c1 too.
Response: 55.5

Query: Now give it for Cn1cc(-c2cc3ncnc(Nc4ccc(NC(=O)Nc5cc(C(C)(C)C)on5)cc4)c3s2)cn1 too.
Response: 22.2

Query: Now give it for N#Cc1cccc(-c2cc(-c3ccc4c(c3)OCCO4)[nH]n2)c1 too.
Response: 41.7

Query: Now give it for Cc1ccc(OCc2occc2C(=O)N2CCOCC2)cc1 too.
Response: 97.9

Query: Now give it for O=[N+]([O-])c1ccc(NC(=S)NNC(=S)Nc2ccc(Br)cc2)cc1 too.
Response: 48.5

###

System: SN12C renal
Assay: NCI-60 one-dose screen, 48 h (100 = growth as untreated, 0 = no growth, -100 = all killed)
Conditions: 10 µM unless noted
About 83,000 compounds went through this panel and 20% of them were active in at least one assay; those are over-represented in the sample as a whole.
Label TRUE when growth < 80%; otherwise FALSE.

Answered cases to consult:
- smilesRepresentation: "O=C(CSc1nc2ccccc2c(=O)n1-c1ccccc1)N/N=C/c1ccc(Oc2ccc(Br)cc2)cc1"
  measuredTarget: "SN12C renal"
  labelClass: "TRUE"
- smilesRepresentation: "C#C[C@]1(O)CC[C@H]2[C@@H]3CC=C4c5sc(Nc6ncccc6C)nc5CC[C@]4(C)[C@H]3CC[C@@]21C"
  measuredTarget: "SN12C renal"
  labelClass: "TRUE"

Query: Strictly below 80%: is that where growth of CCOC(=O)c1c(NCC(=O)Nc2cccc([N+](=O)[O-])c2)sc(C(C)=O)c1C sits?
Response: TRUE

Query: Now give it for Cc1cc(=O)oc2cc(OCCCOc3ccc(/C=C/C(=O)Nc4ccc(Br)cc4)cc3)ccc12 too.
Response: FALSE

Query: Now give it for CCCN1C=C/C(=C\C(=O)n2ccc3ccccc32)c2ccccc21 too.
Response: FALSE

###

Test system: MDA-MB-231 breast
Assay: NCI-60 one-dose screen, 48 h (100 = growth as untreated, 0 = no growth, -100 = all killed)
Conditions: 10 µM unless noted
Compounds without any hit were thinned out: in the full panel of roughly 83,000, 20% have a hit.
Label true when growth < 60%; otherwise false.

Answered cases to consult:
- molecule: "C#Cc1nc(/C=C/CCCCCCC(=O)NO)cs1"
  measuredTarget: "MDA-MB-231 breast"
  labelClass: "true"
- molecule: "O=C(CCCCCCNC(=O)C(O)(O)C(F)(F)F)Nc1ncc(-c2ccccc2)s1"
  measuredTarget: "MDA-MB-231 breast"
  labelClass: "true"
- molecule: "Cn1cc(-c2nnc(N)nc2-c2c[nH]c3ccc(F)cc23)c2cc(Br)ccc21"
  measuredTarget: "MDA-MB-231 breast"
  labelClass: "true"
- molecule: "CCOC(=O)c1c(NCC(=O)Nc2cccc([N+](=O)[O-])c2)sc(C(C)=O)c1C"
  measuredTarget: "MDA-MB-231 breast"
  labelClass: "true"
- molecule: "Cc1ncn(-c2ccc(/C=N/Nc3ccnc4cc(Cl)ccc34)cc2)c1C"
  measuredTarget: "MDA-MB-231 breast"
  labelClass: "true"
- molecule: "COc1ccc(C(=NNS(=O)(=O)c2ccc(C)cc2)c2ccccc2)cc1OC"
  measuredTarget: "MDA-MB-231 breast"
  labelClass: "false"

Query: Strictly below 60%: is that where growth of CC(=O)C1=C(C)NC(NNc2ccccc2)=NC1c1ccc([N+](=O)[O-])cc1 (centres undefined) sits?
Response: false

Query: Now give it for O=S(=O)(NCCCNc1nccc(-c2[nH]c(-c3ccccc3)nc2-c2ccc(F)c(O)c2)n1)c1cccc(F)c1 too.
Response: false

Query: Now give it for Cc1cc(=O)[nH]c(O)c1C#N too.
Response: false

Query: Now give it for O=C(COc1ccc(/C=C2\C(=O)Nc3ccc(Cl)cc32)cc1)Nc1ccc(Cl)cc1 too.
Response: false

###

Test system: SK-OV-3 ovarian
Experiment: NCI-60 one-dose screen, 48 h
Conditions: 10 µM unless noted
About 83,000 compounds went through this panel and 20% of them were active in at least one assay; those are over-represented in the sample as a whole. The source made the active and inactive calls. Rule for the calls: active = growth percent below 10; inactive = the rest.
Would you mind answering with one of these outcomes? active, inactive

- compound: "O=C(COc1ccc(/C=C2\\C(=O)Nc3ccc(Cl)cc32)cc1)Nc1ccc(Cl)cc1"
  labelClass: "inactive"

Query: Tell me the assay call for COc1ccc(C2CC(c3cccc(OCCCCOc4cccc(C5=NOC(c6ccc(OC)cc6)C5)c4)c3)=NO2)cc1 (configuration not stated) please.
Response: inactive

Query: Now give it for COc1ccc2[nH]cc(/C=N/Nc3ccnc4cc(Cl)ccc34)c2c1 too.
Response: active

Query: Now give it for CN1CCN(CCCCCC(=O)Nc2nc(-c3cccc(NS(=O)(=O)c4cccc5c(N(C)C)cccc45)c3)cs2)CC1 too.
Response: inactive

Query: Now give it for Cn1c(SCC(=O)c2ccco2)nc2ccccc2c1=O too.
Response: inactive

Query: Now give it for Cc1ccc(Nc2nc(SC(C)C)nc(-c3ccccc3)c2C#N)cc1 too.
Response: inactive

Query: Now give it for COc1ccccc1Cn1cc(C#N)c(N)c1C(=O)c1ccc(Br)cc1 too.
Response: inactive

###

The entries below are paired with their reported growth.
System: MDA-MB-231 breast
Assay: NCI-60 one-dose screen, 48 h (100 = growth as untreated, 0 = no growth, -100 = all killed)
Details: 10 µM unless noted
The panel holds about 83,000 compounds, 20% with a hit somewhere; the sample as a whole holds those more often.
State just the number; it will be interpreted in %.

Consider the following illustrative entries.
- compound: "O=C(CN1CCN(c2cc(=O)[nH]c3ccc(F)cc23)CC1)N(c1ccccc1)c1ccccc1"
  endpointLabel: "growth"
  observedValue: 98.1
- compound: "CS(=O)(=O)c1ccc(/C(=N/N=C(N)N)c2ccc(Cl)cc2)cc1"
  endpointLabel: "growth"
  observedValue: 96.1
- compound: "N#Cc1c(-c2ccc(F)cc2)cc(-c2c[nH]c3ccccc23)nc1-c1c[nH]c2ccccc12"
  endpointLabel: "growth"
  observedValue: 102
- compound: "C=CCSC1=NC2C(N(CC)C(=O)N2CC)N1/N=C/C=C/c1ccccc1OC (configuration not stated)"
  endpointLabel: "growth"
  observedValue: 82.5

Query: Requested field: growth. Item: CC(=O)OCCCCN1C=C/C(=C\C(=O)n2ccc3ccccc32)c2ccccc21
Response: 86.6

###

The entries below are paired with their reported growth.
Tested on: A498 renal
Experiment: NCI-60 one-dose screen, 48 h (100 = growth as untreated, 0 = no growth, -100 = all killed)
Conditions: 10 µM unless noted
This is part of a sample that, as a whole, favours compounds with a hit. Of some 83,000 tested, about 20% had one in any assay. The source made the active and inactive calls. Rule for the calls: active = growth percent below 10; inactive = the rest.

Consider the following illustrative entries.
- smilesRepresentation: "COc1ccc(/C=N/NC(=O)c2c(N)nn(C)c2Nc2ccccc2)cc1"
  observedValue: "33.1% (inactive)"
- smilesRepresentation: "O=C1[C@@H]2Cc3c([nH]c4ccccc34)[C@@H](c3ccc(Cl)cc3)N2C(=O)CN1C1CCN(Cc2c(F)cccc2F)CC1"
  observedValue: "60% (inactive)"
- smilesRepresentation: "CCNC(=O)Oc1ccc(/C(=C(/C)c2ccc(Cl)cc2)c2ccc(OCCN3CCCCCC3)cc2)cc1"
  observedValue: "64.7% (inactive)"
- smilesRepresentation: "CN1CCN(c2ccc(Nc3nc(NCCCNS(=O)(=O)c4cccc5ccccc45)c4sccc4n3)cc2)CC1"
  observedValue: "-70.5% (active)"
- smilesRepresentation: "C#CCN(C)CCCOc1ccc(NC(=O)CCCCCCC(=O)NO)cc1Cl"
  observedValue: "-12.1% (active)"
- smilesRepresentation: "COc1cc2cc(Oc3ccc(NC(=O)c4cc(C(F)(F)F)cc(C(F)(F)F)c4)cc3)c(C)nc2cc1OCCN1CCOCC1"
  observedValue: "55% (inactive)"

# input for lookup
Query: Requested field: growth. Item: COc1cc2c3c(cc4c5c(ccc4c3c1OC)OCO5)N(CCN(C)C)C2=O
Response: -77.6% (active)
